List of h-poly-IgG Bound values.
Tested on: poly-IgG from human serum (h-poly-IgG)
Experiment: Microtiter plate chromatography of resins: binding and elution of human poly-IgG
Conditions: fraction of injected protein bound; 0.5 mg/ml IgG in PBS pH 7.3
Write it as a number; the unit % goes unstated.

Some solved cases for reference:
[in] Requested read-out: h-poly-IgG Bound. Entry: Cc1cc(NC(=O)c2ccc3c(c2)ncn3CCCN)nn1-c1ccccc1 [Ligand L11]
[out] 88

[in] Requested read-out: h-poly-IgG Bound. Entry: COc1ccc(NC(=O)c2nn(CCCN)c3ccccc23)cc1C(N)=O [Ligand L04]
[out] 100

[in] Requested read-out: h-poly-IgG Bound. Entry: NCCCNc1ccc(C(=O)Nc2nc(-c3ccccn3)cs2)cn1 [Ligand L40]
[out] 98

[in] Requested read-out: h-poly-IgG Bound. Entry: CCc1nc2cc(C(=O)Nc3nnc(-c4ccco4)s3)ccc2n1CCCN [Ligand L44]
[out] 100

[in] Requested read-out: h-poly-IgG Bound. Entry: NCCCn1cnc2cc(C(=O)Nc3nc4ccccc4o3)ccc21 [Ligand L08]
[out] 95

[in] Requested read-out: h-poly-IgG Bound. Entry: NCCCn1cnc2cc(C(=O)Nc3nc(-c4cccnc4)cs3)ccc21 [Ligand L46]
[out] 100

[in] Requested read-out: h-poly-IgG Bound. Entry: NCCCn1cnc2cc(NC(=O)c3cn4ccsc4n3)ccc21 [Ligand L30]
[out] 94

[in] Requested read-out: h-poly-IgG Bound. Entry: NCCCn1cnc2cc(C(=O)Nc3nnc(-c4ccncc4)s3)ccc21 [Ligand L21]
[out] 82

Query molecule follows.
[in] Requested read-out: h-poly-IgG Bound. Entry: Cc1csc(NC(=O)c2ccc3c(c2)ncn3CCCN)n1 [Ligand L15]
[out] 100
